- experimental_target: FGFR3 (SEQ ID NO: 5, amino acids 449-759) (Homo sapiens (Human))
- Sequence (P22607 449-759): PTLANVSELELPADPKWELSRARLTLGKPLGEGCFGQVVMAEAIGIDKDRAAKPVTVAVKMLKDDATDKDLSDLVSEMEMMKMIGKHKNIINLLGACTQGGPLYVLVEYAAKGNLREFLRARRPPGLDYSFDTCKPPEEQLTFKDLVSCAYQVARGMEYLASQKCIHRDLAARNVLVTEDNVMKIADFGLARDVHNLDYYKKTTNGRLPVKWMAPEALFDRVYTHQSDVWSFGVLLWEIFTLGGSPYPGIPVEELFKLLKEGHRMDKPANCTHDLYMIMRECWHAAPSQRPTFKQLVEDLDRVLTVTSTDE
- method_summary: LC/MS FGFR3 kobs assay (covalent protein modification)
- Type: binding
- experimental_context: 500 nM FGFR3, 3 μM compound
outcome_measure: FGFR3 Enz kobs (min⁻¹)
# unit: min⁻¹ | format: bare number

Input C=CC(=O)N1CCC[C@H](C(=O)N2CCC(n3cc(-c4cc(OC)c5c(C#N)cnn5c4)cn3)CC2)C1 [Example 16] . Output FGFR3 Enz kobs: 0.00124

Documented FGFR3 Enz kobs of C=CC(=O)NC1C2CC1C2C(=O)N1CCC(n2cc(-c3cc(OC)c4c(C#N)cnn4c3)cn2)CC1 (stereo not shown) [Example 46] : 0.00153

get_value(item= COc1cc(-c2c(C)nn(C3CCN(C(=O)C4(F)CN(C(=O)/C=C/CN(C)C)C4)CC3)c2C)cn2ncc(C#N)c12 [Example 161] , readout=FGFR3 Enz kobs) returns 0.1129

Per the record, C=CC(=O)N1CC(C(=O)N2CCC(n3cc(-c4cc(OC(C)C)c5c(C#N)cnn5c4)cn3)CC2)C1 [Example 127] has FGFR3 Enz kobs of 0.01654

For C=CC(=O)N1CC(C(=O)N2CCN(c3ncc(-c4cc(OC)c5c(C#N)cnn5c4)cn3)CC2)C1 [Example 133] the compound record lists FGFR3 Enz kobs as 0.02206

Entry under test: C=CC(=O)N1CC(OC)(C(=O)N2CCC(n3nc(C)c(-c4cc(OC)c5c(C#N)cnn5c4)c3C)CC2)C1 [Example 95] . Its FGFR3 Enz kobs was 0.04202

For C=CC(=O)N[C@H]1C[C@H](C(=O)N2CC[C@H](n3cc(-c4cc(OC)c5c(C#N)cnn5c4)cn3)C2)C1 [Example 74] the compound record lists FGFR3 Enz kobs as 0.00063

---

- experimental_target: recombinant human FGFR1 catalytic domain (amino acids 308-731) (Homo sapiens (Human))
- Sequence (P11362 other isoform, or with tags, fused parts or gaps): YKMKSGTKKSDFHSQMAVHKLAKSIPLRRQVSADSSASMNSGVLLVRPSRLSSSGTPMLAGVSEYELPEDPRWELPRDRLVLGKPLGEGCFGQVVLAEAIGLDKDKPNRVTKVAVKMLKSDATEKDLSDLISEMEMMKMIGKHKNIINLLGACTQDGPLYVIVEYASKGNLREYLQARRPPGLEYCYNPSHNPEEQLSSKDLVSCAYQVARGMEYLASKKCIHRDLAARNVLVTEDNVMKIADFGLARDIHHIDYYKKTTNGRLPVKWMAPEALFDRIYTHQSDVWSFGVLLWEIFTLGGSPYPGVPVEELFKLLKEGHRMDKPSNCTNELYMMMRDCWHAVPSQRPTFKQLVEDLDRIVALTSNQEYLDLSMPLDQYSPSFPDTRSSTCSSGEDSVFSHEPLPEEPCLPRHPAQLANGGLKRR
- method_summary: FGFR1 enzyme activity assay (LanthaScreen TR-FRET)
- experimental_context: 20 min incubation at 22° C., average of multiple determinations if made, read-out: FGFR1 Enz FRET IC50
pIC50: −log10 of the molar value.
Use 8 as the dividing line for pIC50, with the line itself on the true (1) side and lower values as false (0).

Request: Is pIC50 for C=CC(=O)N1CC(F)(C(=O)N2CCC(n3cc(-c4cc(OC)c5c(Cl)cnn5c4)cn3)CC2)C1 at or above 8?
Response: false (0)

Request: Is reported pIC50 greater than or equal to 8 here: C=CC(=O)N1CCN(C(=O)N2CCC(n3cc(-c4cc(OC)c5c(C#N)cnn5c4)cn3)CC2)CC1
Response: true (1)

Request: Could you tell me if the measured pIC50 of C=CC(=O)N1CC[C@@H](C(=O)N2CC[C@H](n3cc(-c4cc(OC)c5c(C#N)cnn5c4)cn3)C2)C1 reaches 8 or more?
Response: false (0)

Request: Item C=CC(=O)N1CC[C@@H](C(=O)N2CCC(n3cc(-c4cc(OC)c5c(C#N)cnn5c4)cn3)CC2)C1 with pIC50 of 8 or above?
Response: false (0)

Request: Item COc1cc(-c2cnn(C3CN(CC4CN(C(=O)/C=C/CN5CCCCC5)C4)C3)c2)cn2ncc(C#N)c12 with pIC50 of 8 or above?
Response: false (0)
